ASSAY SYSTEM: Glutamate receptor ionotropic, AMPA (Rattus norvegicus) (UniProt P19491+P19492+P19493+P19490)
TEST DETAILS: Positive allosteric modulation of rat Purkinje neuron AMPA receptor assessed as change in kainate-induced current at 10^-6 M measured for 2 mins by patch clamp assay (rvb = 100%)
ASSAY ENDPOINT: Activity (%)
Numbers only, in %.

# COMPOUND, Activity [%]
measured = [
    ("c1cc(Oc2nc(C3CC3)nc3c2CCCC3)ccc1Oc1nc(C2CC2)nc2c1CCCC2", 96),
    ("CC(C)(C)c1nc2c(c(Oc3ccc(Oc4nc(C(C)(C)C)nc5c4CCCC5)cc3)n1)CCCC2", 145),
    ("NS(=O)(=O)c1cc2c(cc1Cl)NC(C1CC3C=CC1C3)NS2(=O)=O (centres undefined)", 145),
]

// next entry
input: Determine its reported Activity: Cc1nc2c(c(Oc3ccc(Oc4nc(C)nc5c4CCCC5)cc3)n1)CCCC2
output: 78

* * *

ASSAY SYSTEM: Glutamate receptor ionotropic, AMPA (Rattus norvegicus) (UniProt P19491+P19492+P19493+P19490)
TEST DETAILS: Positive allosteric modulation of rat Purkinje neuron AMPA receptor assessed as change in kainate-induced current at 10^-7 M measured for 2 mins by patch clamp assay (rvb = 100%)
ASSAY ENDPOINT: Activity (%)
Answers are plain numbers, in %.

The following molecules have reported results that may help.
# MOLECULE, Activity / %
measured = [
    ("CC(C)(C)c1nc2c(c(Oc3ccc(Oc4nc(C(C)(C)C)nc5c4CCCC5)cc3)n1)CCCC2", 133),
    ("NS(=O)(=O)c1cc2c(cc1Cl)NC(C1CC3C=CC1C3)NS2(=O)=O (stereo unspecified)", 100),
    ("CCc1nc2c(c(Oc3ccc(Oc4nc(CC)nc5c4CCCC5)cc3)n1)CCCC2", 100),
    ("c1cc(Oc2nc(C3CC3)nc3c2CCCC3)ccc1Oc1nc(C2CC2)nc2c1CCCC2", 97),
    ("Cc1nc2c(c(Oc3ccc(Oc4nc(C)nc5c4CCCC5)cc3)n1)CCCC2", 85),
]

// next entry
input: Determine its reported Activity: CC(C)c1nc2c(c(Oc3ccc(Oc4nc(C(C)C)nc5c4CCCC5)cc3)n1)CCCC2
output: 98

* * *

ASSAY SYSTEM: Glutamate receptor ionotropic, AMPA (Rattus norvegicus) (UniProt P19491+P19492+P19493+P19490)
TEST DETAILS: Positive allosteric modulation of rat Purkinje neuron AMPA receptor assessed as change in kainate-induced current at 10^-10 M measured for 2 mins by patch clamp assay (rvb = 100%)
What Activity was measured for each of the following?
Give bare numbers, in %.

The following compounds have reported results that may help.
# SMILES NOTATION, UNIT OF MEASURE, Activity
records = [
    ("CCc1nc2c(c(Oc3ccc(Oc4nc(CC)nc5c4CCCC5)cc3)n1)CCCC2", "%", 126),
    ("CC(C)(C)c1nc2c(c(Oc3ccc(Oc4nc(C(C)(C)C)nc5c4CCCC5)cc3)n1)CCCC2", "%", 108),
    ("c1cc(Oc2nc(C3CC3)nc3c2CCCC3)ccc1Oc1nc(C2CC2)nc2c1CCCC2", "%", 100),
    ("Cc1nc2c(c(Oc3ccc(Oc4nc(C)nc5c4CCCC5)cc3)n1)CCCC2", "%", 143),
]

// next entry
input: Determine its reported Activity: CC(C)c1nc2c(c(Oc3ccc(Oc4nc(C(C)C)nc5c4CCCC5)cc3)n1)CCCC2
output: 72

* * *

What Activity was measured for each of the following?
ASSAY SYSTEM: Glutamate receptor ionotropic, AMPA (Rattus norvegicus) (UniProt P19491+P19492+P19493+P19490)
TEST DETAILS: Positive allosteric modulation of rat Purkinje neuron AMPA receptor assessed as change in kainate-induced current at 10^-11 M measured for 2 mins by patch clamp assay (rvb = 100%)
Enter the number, and then the unit.

The following molecules have reported results that may help.
# SMILES NOTATION, Activity
data = [
    ("CC(C)(C)c1nc2c(c(Oc3ccc(Oc4nc(C(C)(C)C)nc5c4CCCC5)cc3)n1)CCCC2", "100%"),
    ("CCc1nc2c(c(Oc3ccc(Oc4nc(CC)nc5c4CCCC5)cc3)n1)CCCC2", "117%"),
    ("Cc1nc2c(c(Oc3ccc(Oc4nc(C)nc5c4CCCC5)cc3)n1)CCCC2", "132%"),
    ("CC(C)c1nc2c(c(Oc3ccc(Oc4nc(C(C)C)nc5c4CCCC5)cc3)n1)CCCC2", "84%"),
]

// next entry
input: Determine its reported Activity: c1cc(Oc2nc(C3CC3)nc3c2CCCC3)ccc1Oc1nc(C2CC2)nc2c1CCCC2
output: 100%

* * *

ASSAY SYSTEM: Glutamate receptor ionotropic, AMPA (Rattus norvegicus) (UniProt P19491+P19492+P19493+P19490)
TEST DETAILS: Positive allosteric modulation of rat Purkinje neuron AMPA receptor assessed as change in kainate-induced current at 10^-8 M measured for 2 mins by patch clamp assay (rvb = 100%)
What Activity was measured for each of the following?
Answers are plain numbers, in %.

The following compounds have reported results that may help.
# SMILES NOTATION, Activity, %
records = [
    ("CCc1nc2c(c(Oc3ccc(Oc4nc(CC)nc5c4CCCC5)cc3)n1)CCCC2", 128),
    ("c1cc(Oc2nc(C3CC3)nc3c2CCCC3)ccc1Oc1nc(C2CC2)nc2c1CCCC2", 96),
    ("CC(C)(C)c1nc2c(c(Oc3ccc(Oc4nc(C(C)(C)C)nc5c4CCCC5)cc3)n1)CCCC2", 125),
    ("Cc1nc2c(c(Oc3ccc(Oc4nc(C)nc5c4CCCC5)cc3)n1)CCCC2", 123),
]

// next entry
input: Determine its reported Activity: CC(C)c1nc2c(c(Oc3ccc(Oc4nc(C(C)C)nc5c4CCCC5)cc3)n1)CCCC2
output: 92

* * *

ASSAY SYSTEM: Glutamate receptor ionotropic, AMPA (Rattus norvegicus) (UniProt P19491+P19492+P19493+P19490)
TEST DETAILS: Positive allosteric modulation of rat Purkinje neuron AMPA receptor assessed as change in kainate-induced current at 10^-9 M measured for 2 mins by patch clamp assay (rvb = 100%)
ASSAY ENDPOINT: Activity (%)
One number for each entry, in %.

The following compounds have reported results that may help.
# SMILES NOTATION, VAL
data = [
    ("CC(C)(C)c1nc2c(c(Oc3ccc(Oc4nc(C(C)(C)C)nc5c4CCCC5)cc3)n1)CCCC2", 120),
    ("CCc1nc2c(c(Oc3ccc(Oc4nc(CC)nc5c4CCCC5)cc3)n1)CCCC2", 155),
    ("CC(C)c1nc2c(c(Oc3ccc(Oc4nc(C(C)C)nc5c4CCCC5)cc3)n1)CCCC2", 82),
    ("Cc1nc2c(c(Oc3ccc(Oc4nc(C)nc5c4CCCC5)cc3)n1)CCCC2", 170),
]

input: Determine its reported Activity: c1cc(Oc2nc(C3CC3)nc3c2CCCC3)ccc1Oc1nc(C2CC2)nc2c1CCCC2
output: 95
